TESTED_SYSTEM: human GR (Homo sapiens, UniProt P04150)
Sequence (P04150 whole entry): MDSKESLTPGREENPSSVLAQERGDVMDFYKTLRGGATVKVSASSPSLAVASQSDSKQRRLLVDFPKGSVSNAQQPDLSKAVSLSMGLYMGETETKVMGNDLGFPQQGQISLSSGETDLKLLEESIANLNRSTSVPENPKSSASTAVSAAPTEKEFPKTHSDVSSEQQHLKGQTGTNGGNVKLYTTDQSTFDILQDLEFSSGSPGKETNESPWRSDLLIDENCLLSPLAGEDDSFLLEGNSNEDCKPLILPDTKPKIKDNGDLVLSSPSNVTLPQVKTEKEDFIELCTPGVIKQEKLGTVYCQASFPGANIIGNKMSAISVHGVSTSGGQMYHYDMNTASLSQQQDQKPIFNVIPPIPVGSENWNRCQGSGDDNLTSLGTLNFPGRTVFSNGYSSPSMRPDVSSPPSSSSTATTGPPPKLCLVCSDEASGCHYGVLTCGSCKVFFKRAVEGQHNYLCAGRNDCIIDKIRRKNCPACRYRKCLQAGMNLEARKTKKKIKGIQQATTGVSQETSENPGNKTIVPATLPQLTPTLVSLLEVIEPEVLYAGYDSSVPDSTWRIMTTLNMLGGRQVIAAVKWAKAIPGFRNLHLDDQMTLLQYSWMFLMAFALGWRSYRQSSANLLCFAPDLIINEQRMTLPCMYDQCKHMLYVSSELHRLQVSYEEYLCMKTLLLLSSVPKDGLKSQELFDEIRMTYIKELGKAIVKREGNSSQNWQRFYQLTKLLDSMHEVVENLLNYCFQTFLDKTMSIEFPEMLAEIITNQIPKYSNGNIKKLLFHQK
PROTOCOL_DETAILS: Transrepression Assay (GITAR), TNFα-β-lactamase reporter in U937 cells
Format: cell-based
Set-up: U937 cells contain an endogenous glucocorticoid receptor (GR); endogenous in cells; host or cells: U937 cells stably transfected with the TNF-alpha promoter/beta-lactamase reporter
STATED_CONDITIONS: U937 cells; inflection point; read-out: Transrepression U937 Cells GITAR IP
pEC50: −log10 of the molar value.
MEASUREMENT_LABEL: pEC50

Solved cases (2 shown):
MOLECULE: C[C@]12Cc3cnn(-c4ccc(F)cc4)c3C=C1CC[C@@H]2CN(CCCc1ccccc1)S(=O)(=O)c1ccccc1F [Example 195]
pEC50: 6.31

MOLECULE: C[C@]12Cc3cnn(-c4ccc(F)cc4)c3C=C1CC[C@@H]2CN(CC#N)S(=O)(=O)c1ccccc1Cl [Example 50]
pEC50: 6.02

[1] C[C@]12Cc3cnn(-c4ccc(F)cc4)c3C=C1CC[C@@H]2CN(CCCc1ccccc1)S(=O)(=O)CC(F)(F)F [Example 193]
[2] C[C@]12Cc3cnn(-c4ccc(F)cc4)c3C=C1CC[C@@H]2CN(CCO)S(=O)(=O)c1cc(Cl)c(Cl)s1 [Example 58]
Query block: Please let me know which one, 1 or 2 , has a lower measured pEC50 value. Pick one; state its label.
Result block: 2
(2: 6.13, 1: 6.77)

----------
TESTED_SYSTEM: glucocorticoid receptor (Homo sapiens, UniProt P04150)
Construct: endogenous in cells
Sequence (P04150 whole entry): as above
PROTOCOL_DETAILS: Ligand binding assay (GR BIND)
Description: • Materials: • Binding Buffer: TEGM (10 mM Tris-HCl, 1 mM EDTA, 10% glycerol, 1 mM beta-mecaptoethanol, 10 mM Sodium Molybdate, pH 7.2) • 50% HAP Slurry: Calbiochem Hydroxylapatite, Fast Flow, in 10 mM Tris, pH 8.0 and 1 mM EDTA. • Wash Buffer: 40 mM Tris, pH7.5, 100 mM KCl, 1 mM EDTA and 1 mM EGTA. […] 25 μL of ^3H-DEX (6 nM) trace and 25 μL compound solution are first mixed together, followed by addition of 50 μL receptor solution. […] IC54s are calculated using DEX as a reference.
MEASUREMENT_LABEL: Ki (nM)

COMPOUND: COC(=O)c1ccccc1CS(=O)(=O)N(CCc1ccccc1F)C[C@H]1CCC2=Cc3c(cnn3-c3ccc(F)cc3)C[C@@]21C
TESTED_SYSTEM: glucocorticoid receptor (Homo sapiens, UniProt P04150)
VAL: 1.2
//
COMPOUND: C[C@]12Cc3cnn(-c4ccc(F)cc4)c3C=C1CC[C@@H]2CN(CCO)S(=O)(=O)c1cccc(C#N)c1
TESTED_SYSTEM: glucocorticoid receptor (Homo sapiens, UniProt P04150)
VAL: 3.6
//
COMPOUND: C[C@]12Cc3cnn(-c4ccc(F)cc4)c3C=C1CC[C@@H]2CN(CCc1ccccc1Cl)S(=O)(=O)c1ccccc1F
TESTED_SYSTEM: glucocorticoid receptor (Homo sapiens, UniProt P04150)
VAL: 3
//
COMPOUND: C[C@]12Cc3cnn(-c4ccc(F)cc4)c3C=C1CC[C@@H]2CNS(=O)(=O)Cc1cccnc1
TESTED_SYSTEM: glucocorticoid receptor (Homo sapiens, UniProt P04150)
VAL: 20.9
//
COMPOUND: C[C@]12Cc3cnn(-c4ccc(F)cc4)c3C=C1CC[C@@H]2CN(CCc1ccccn1)S(=O)(=O)CCN1C(=O)c2ccccc2C1=O
TESTED_SYSTEM: glucocorticoid receptor (Homo sapiens, UniProt P04150)
VAL: 1.6
//
COMPOUND: CCCCCCCCS(=O)(=O)N(CCc1ccccc1F)C[C@H]1CCC2=Cc3c(cnn3-c3ccc(F)cc3)C[C@@]21C
TESTED_SYSTEM: glucocorticoid receptor (Homo sapiens, UniProt P04150)
VAL: 9.8
//
COMPOUND: CCS(=O)(=O)N(CC1CCCO1)C[C@H]1CCC2=Cc3c(cnn3-c3ccc(F)cc3)C[C@@]21C (some centres unmarked)
TESTED_SYSTEM: glucocorticoid receptor (Homo sapiens, UniProt P04150)
VAL: 3.4
//
COMPOUND: C[C@]12Cc3cnn(-c4ccc(F)cc4)c3C=C1CC[C@@H]2CN(CCc1ccccn1)S(=O)(=O)Cc1ccccn1
TESTED_SYSTEM: glucocorticoid receptor (Homo sapiens, UniProt P04150)
VAL: 1.6

[1] C[C@]12Cc3cnn(-c4ccc(F)cc4)c3C=C1CC[C@@H]2CN(CCC#N)S(=O)(=O)c1ccccc1F
[2] Cc1noc(C)c1S(=O)(=O)N(CCc1ccccc1O)C[C@H]1CCC2=Cc3c(cnn3-c3ccc(F)cc3)C[C@@]21C
[3] C[C@]12Cc3cnn(-c4ccc(F)cc4)c3C=C1CC[C@@H]2CN(CC#N)S(=O)(=O)c1cc(OCC(F)(F)F)ccc1OCC(F)(F)F
Query block: Order the items by recorded Ki; the first position goes to the largest value. Write the labels, ordered according to the request.
Result block: 3, 1, 2
(3: 5.9 nM, 1: 3 nM, 2: 0.9 nM)

[a] COCCN(C[C@H]1CCC2=Cc3c(cnn3-c3ccc(F)cc3)C[C@@]21C)S(C)(=O)=O
[b] Cn1nc(C(F)(F)F)cc1-c1ccc(S(=O)(=O)N(CC#N)C[C@H]2CCC3=Cc4c(cnn4-c4ccc(F)cc4)C[C@@]32C)s1
Query block: Hi! Which is lower in terms of Ki, the first one a or the second one b ? Give the chosen item's label as your response.
Result block: a
